// data source = patent US20260345593A1

assay: Example 1, first clinical study: pharmacokinetics in healthy subjects; type: in vivo, human; conditions: human, in vivo, po, observed, oral dose; read-out: tmax (time to Cmax)
Measured Quantity: Tmax (h)
Write the number in h without appending the unit.

QUERY: Name the recorded Tmax for Cc1cc(-c2nccc3c2ccn3CC(=O)Nc2ccc(-c3cnccn3)cn2)ccn1 .
RESULT: 1

----------
test: Example 1, first clinical study: pharmacokinetics in healthy subjects; assay type: in vivo, human; details: human, in vivo, po, multiple daily doses of 5 to 20 mg; read-out: tmax (medians)
Measured Quantity: Tmax

QUERY: Fill blank: measured Tmax of the compound Cc1cc(-c2nccc3c2ccn3CC(=O)Nc2ccc(-c3cnccn3)cn2)ccn1 is ____.
RESULT: 1 to 1.3 h
